- Assay system: Follicle-stimulating hormone receptor (Homo sapiens, UniProt P23945)
- Sequence (P23945 whole entry): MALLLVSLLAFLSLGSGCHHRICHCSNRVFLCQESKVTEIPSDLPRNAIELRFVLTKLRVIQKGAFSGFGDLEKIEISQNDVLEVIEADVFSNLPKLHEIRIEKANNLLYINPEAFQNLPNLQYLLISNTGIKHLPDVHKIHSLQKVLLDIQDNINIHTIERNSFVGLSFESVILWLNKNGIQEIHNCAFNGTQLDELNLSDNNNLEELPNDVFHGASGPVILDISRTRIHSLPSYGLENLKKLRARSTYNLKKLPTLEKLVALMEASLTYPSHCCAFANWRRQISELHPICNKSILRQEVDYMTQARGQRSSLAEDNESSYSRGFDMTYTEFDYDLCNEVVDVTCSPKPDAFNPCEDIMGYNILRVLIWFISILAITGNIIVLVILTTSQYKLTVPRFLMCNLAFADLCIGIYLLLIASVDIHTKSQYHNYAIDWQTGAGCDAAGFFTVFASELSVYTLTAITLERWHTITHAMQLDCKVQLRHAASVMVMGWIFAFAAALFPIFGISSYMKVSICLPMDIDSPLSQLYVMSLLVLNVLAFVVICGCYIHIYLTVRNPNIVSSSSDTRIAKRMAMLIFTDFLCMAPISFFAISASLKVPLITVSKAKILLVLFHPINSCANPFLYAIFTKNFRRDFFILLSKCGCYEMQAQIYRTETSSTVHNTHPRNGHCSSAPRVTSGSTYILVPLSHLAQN
- Measurement description: Agonistic activity against Follicle stimulating hormone receptor expressed in chinese hamster ovary cells(CHO)
pEC50: −log10 of the molar value.
Readout kind: pEC50

CCCCCNC(=O)CN1CC(=O)N(C)[C@@H](Cc2ccc(-c3cccc(CN(CCCC)C(=O)NC)c3)cc2)C1=O
5.77
CCCCCCNC(=O)CN1CC(=O)N(C)[C@@H](Cc2ccc(-c3cc(OC)c(OC)c(OC)c3)cc2)C1=O
5.52
CCCCCCNC(=O)CN1C(=O)C(Cc2ccc(-c3ccc(CN(CCCC)C(=O)NC)cc3)cc2)N(C)C1=O (stereo not given)
5.60

a. CCCCOC(=O)N(CC(=O)NCC1CC1)Cc1ccc(-c2ccccc2CN(CCCC)C(C)=O)cc1
b. CCCCN(Cc1cccc(-c2ccc(C(=O)NC3CCCCN(CC(=O)NCCc4ccc(Cl)cc4)C3=O)cc2)c1)C(=O)NC (stereo not given)
Parameter metric = pEC50. Return the lower-valued option from a and b . Answer by stating the label of the chosen item.
a
